# Measurement description: Pharmacokinetics in plasma and urine
# Type: in vivo, human
# Setup conditions: human, plasma, oral, 100 mg, t ½,ss, gMean (gCV%), Group II (moderate liver impairment), 100 mg b.i.d., n = 2, steady state

Cpd smiles	half-life [h]
COC(=O)c1ccc2c(c1)NC(=O)/C2=C(\Nc1ccc(N(C)C(=O)CN2CCN(C)CC2)cc1)c1ccccc1	41.6

---

# Measurement description: Pharmacokinetics in plasma and urine
# Type: in vivo, human
# Setup conditions: human, plasma, oral, 150 mg, t ½,ss, gMean (gCV%), Group II (moderate liver impairment), 150 mg b.i.d., n = 3, steady state
Parameter measured: half-life (h)

Molecule	Val
COC(=O)c1ccc2c(c1)NC(=O)/C2=C(\Nc1ccc(N(C)C(=O)CN2CCN(C)CC2)cc1)c1ccccc1 [nintedanib]	14.6
